- Tested on: E. coli GC 6465
- protocol: MIC, broth microdilution
- experimental-context: Escherichia coli, GC6465, E. coli GC 6465; Water pre-incubation
MIC listing for selected compounds.

- compound: "CCCCN(CC(=O)Nc1cc(N(C)C)c2c(c1O)C(=O)C1=C(O)[C@]3(O)C(=O)C(C(N)=O)=C(O)[C@@H](N(C)C)C3CC1C2)C(=O)OCOC(=O)c1ccc(OC)cc1 (stereo partly shown)"
  reading: "64 µg/mL"
- compound: "CCCN(CC(=O)Nc1cc(N(C)C)c2c(c1O)C(=O)C1=C(O)[C@]3(O)C(=O)C(C(N)=O)=C(O)[C@@H](N(C)C)[C@@H]3C[C@@H]1C2)C(=O)OCOC(=O)Cc1ccccc1"
  reading: "> 64 µg/mL"
- compound: "CCCN(CC(=O)Nc1cc(N(C)C)c2c(c1O)C(=O)C1=C(O)[C@]3(O)C(=O)C(C(N)=O)=C(O)[C@@H](N(C)C)[C@@H]3C[C@@H]1C2)C(=O)OCOC(=O)c1ccc(F)cc1"
  reading: "> 64 µg/mL"

// next item, MIC requested
query: Quick one: MIC for CCCN(CC(=O)Nc1cc(N(C)C)c2c(c1O)C(=O)C1=C(O)[C@]3(O)C(=O)C(C(N)=O)=C(O)[C@@H](N(C)C)[C@@H]3C[C@@H]1C2)C(=O)OCOC(=O)C(C)C ?
result: > 64 µg/mL

* * *

Below, each entry is listed with its recorded MIC.
- Test system: P. aeruginosa GC 2214
- protocol: MIC, broth microdilution
- experimental-context: Pseudomonas aeruginosa, GC2214, P. aeruginosa GC 2214; Mouse Serum pre-incubation
Numeric answer only, unit µg/mL assumed.

query: Entry CCCN(CC(=O)Nc1cc(N(C)C)c2c(c1O)C(=O)C1=C(O)[C@]3(O)C(=O)C(C(N)=O)=C(O)[C@@H](N(C)C)[C@@H]3C[C@@H]1C2)C(=O)OCOC(=O)C1CCC1 , system P. aeruginosa GC 2214: what MIC was measured?
result: 16

query: Input CCCCN(CC(=O)Nc1cc(N(C)C)c2c(c1O)C(=O)C1=C(O)[C@]3(O)C(=O)C(C(N)=O)=C(O)[C@@H](N(C)C)[C@@H]3C[C@@H]1C2)C(=O)OCOC(=O)Cc1ccccc1
result: 32

query: Could you do the same for CCCCN(CC(=O)Nc1cc(N(C)C)c2c(c1O)C(=O)C1=C(O)[C@]3(O)C(=O)C(C(N)=O)=C(O)[C@@H](N(C)C)[C@@H]3C[C@@H]1C2)C(=O)OCOC(=O)c1ccc(F)cc1 , please?
result: 32

query: And what about the compound CCCN(CC(=O)Nc1cc(N(C)C)c2c(c1O)C(=O)C1=C(O)[C@]3(O)C(=O)C(C(N)=O)=C(O)[C@@H](N(C)C)[C@@H]3C[C@@H]1C2)C(=O)OCOC(=O)c1ccc(F)cc1 ?
result: 32

* * *

- Test system: Staph. aureus Smith
- protocol: In vivo activity (oral, iv; ED50) against Staph. aureus Smith in mice
- experimental-context: Staphylococcus aureus, in Mus musculus, po, read-out: ED50 SOD (Staph aureus Smith)
In this section we review reported ED50 values for a set of molecules.
# output: bare number, implied unit mg/kg

Reference set (6 entries):
- smiles: "CCCN(CC(=O)Nc1cc(N(C)C)c2c(c1O)C(=O)C1=C(O)[C@]3(O)C(=O)C(C(N)=O)=C(O)[C@@H](N(C)C)[C@@H]3C[C@@H]1C2)C(=O)OCOC(=O)c1ccc(C(C)(C)C)cc1"
  unit-abbrev: "mg/kg"
  reading: 6.61
- smiles: "Cc1ccc(C(=O)OCOC(=O)N(CC(=O)Nc2cc(N(C)C)c3c(c2O)C(=O)C2=C(O)[C@]4(O)C(=O)C(C(N)=O)=C(O)[C@@H](N(C)C)[C@@H]4C[C@@H]2C3)C(C)(C)C)cc1"
  unit-abbrev: "mg/kg"
  reading: 14
- smiles: "CN(C)c1cc(NC(=O)CN(C(=O)OCOC(=O)C2CCCCC2)C(C)(C)C)c(O)c2c1C[C@H]1C[C@H]3[C@H](N(C)C)C(O)=C(C(N)=O)C(=O)[C@@]3(O)C(O)=C1C2=O"
  unit-abbrev: "mg/kg"
  reading: 16.9
- smiles: "CCCN(CC(=O)Nc1cc(N(C)C)c2c(c1O)C(=O)C1=C(O)[C@]3(O)C(=O)C(C(N)=O)=C(O)[C@@H](N(C)C)[C@@H]3C[C@@H]1C2)C(=O)OCOC(=O)CC(C)(C)C"
  unit-abbrev: "mg/kg"
  reading: 3.5
- smiles: "CC(C)C(=O)OCOC(=O)N(CC(=O)Nc1cc(N(C)C)c2c(c1O)C(=O)C1=C(O)[C@]3(O)C(=O)C(C(N)=O)=C(O)[C@@H](N(C)C)[C@@H]3C[C@@H]1C2)C(C)(C)C"
  unit-abbrev: "mg/kg"
  reading: 5.9
- smiles: "CN(C)c1cc(NC(=O)CN(C(=O)OCOC(=O)CC(C)(C)C)C(C)(C)C)c(O)c2c1C[C@H]1C[C@H]3[C@H](N(C)C)C(O)=C(C(N)=O)C(=O)[C@@]3(O)C(O)=C1C2=O"
  unit-abbrev: "mg/kg"
  reading: 5.68

Moving on to another molecule below.
query: Sample CCC(C)(C)C(=O)OCOC(=O)N(CC(=O)Nc1cc(N(C)C)c2c(c1O)C(=O)C1=C(O)[C@]3(O)C(=O)C(C(N)=O)=C(O)[C@@H](N(C)C)[C@@H]3C[C@@H]1C2)C(C)(C)C — what was its ED50?
result: 4

* * *

- Tested on: E. coli GC 1073
- protocol: MIC, broth microdilution
- experimental-context: Escherichia coli, GC1073, E. coli GC 1073; Mouse Serum pre-incubation
Entries and their MIC
Write the number in µg/mL without appending the unit.

// worked examples, MIC included
- compound: "CCCN(CC(=O)Nc1cc(N(C)C)c2c(c1O)C(=O)C1=C(O)[C@]3(O)C(=O)C(C(N)=O)=C(O)[C@@H](N(C)C)[C@@H]3C[C@@H]1C2)C(=O)OCOC(=O)C(C)(C)C [Example 9]"
  unit-abbrev: "µg/mL"
  reading: 1
- compound: "CCCCN(CC(=O)Nc1cc(N(C)C)c2c(c1O)C(=O)C1=C(O)[C@]3(O)C(=O)C(C(N)=O)=C(O)[C@@H](N(C)C)[C@@H]3C[C@@H]1C2)C(=O)OCOC(=O)Cc1ccccc1 [Example 12]"
  unit-abbrev: "µg/mL"
  reading: 1

As a next step, examine the compound that follows.
query: Which MIC is listed for CCCN(CC(=O)Nc1cc(N(C)C)c2c(c1O)C(=O)C1=C(O)[C@]3(O)C(=O)C(C(N)=O)=C(O)[C@@H](N(C)C)[C@@H]3C[C@@H]1C2)C(=O)OCOC(=O)c1ccc(C)cc1 [Example 5] ?
result: 2

* * *

- System: E. coli GC 4560
- protocol: MIC, broth microdilution
- experimental-context: Escherichia coli, GC4560, E. coli GC 4560; Mouse Serum pre-incubation
parameter-measured: MIC

Solved cases below.
- compound: "CCCCN(CC(=O)Nc1cc(N(C)C)c2c(c1O)C(=O)C1=C(O)[C@]3(O)C(=O)C(C(N)=O)=C(O)[C@@H](N(C)C)[C@@H]3C[C@@H]1C2)C(=O)OCOC(=O)C(C)(C)C"
  target-or-system: "E. coli GC 4560"
  parameter-measured: "MIC"
  reading: "1 µg/mL"
- compound: "CCCN(CC(=O)Nc1cc(N(C)C)c2c(c1O)C(=O)C1=C(O)[C@]3(O)C(=O)C(C(N)=O)=C(O)[C@@H](N(C)C)[C@@H]3C[C@@H]1C2)C(=O)OCOC(=O)c1ccc(C)cc1"
  target-or-system: "E. coli GC 4560"
  parameter-measured: "MIC"
  reading: "0.5 µg/mL"
- compound: "CCCCN(CC(=O)Nc1cc(N(C)C)c2c(c1O)C(=O)C1=C(O)[C@]3(O)C(=O)C(C(N)=O)=C(O)[C@@H](N(C)C)[C@@H]3C[C@@H]1C2)C(=O)OCOC(=O)c1ccc(F)cc1"
  target-or-system: "E. coli GC 4560"
  parameter-measured: "MIC"
  reading: "0.25 µg/mL"

Okay, next one:
query: Which value of MIC has been reported for CCCCN(CC(=O)Nc1cc(N(C)C)c2c(c1O)C(=O)C1=C(O)[C@]3(O)C(=O)C(C(N)=O)=C(O)[C@@H](N(C)C)C3CC1C2)C(=O)OCOC(=O)c1ccc(OC)cc1 (stereo partly shown) in the records?
result: 0.25 µg/mL

* * *

- System: Salmonella spp. GC 566
- protocol: MIC, broth microdilution
- experimental-context: Salmonella, SPP.GC566, Salmonella spp. GC 566; Water pre-incubation
parameter-measured: MIC

- smiles: "CCCCN(CC(=O)Nc1cc(N(C)C)c2c(c1O)C(=O)C1=C(O)[C@]3(O)C(=O)C(C(N)=O)=C(O)[C@@H](N(C)C)[C@@H]3C[C@@H]1C2)C(=O)OCOC(=O)C(C)(C)C"
  MIC: "64 µg/mL"
- smiles: "CCCCN(CC(=O)Nc1cc(N(C)C)c2c(c1O)C(=O)C1=C(O)[C@]3(O)C(=O)C(C(N)=O)=C(O)[C@@H](N(C)C)[C@@H]3C[C@@H]1C2)C(=O)OCOC(=O)Cc1ccccc1"
  MIC: "> 64 µg/mL"
- smiles: "CCCN(CC(=O)Nc1cc(N(C)C)c2c(c1O)C(=O)C1=C(O)[C@]3(O)C(=O)C(C(N)=O)=C(O)[C@@H](N(C)C)[C@@H]3C[C@@H]1C2)C(=O)OCOC(=O)Cc1ccccc1"
  MIC: "> 64 µg/mL"

API: the following record is the query input.
query: Please give the measured MIC for this compound: CCCCN(CC(=O)Nc1cc(N(C)C)c2c(c1O)C(=O)C1=C(O)[C@]3(O)C(=O)C(C(N)=O)=C(O)[C@@H](N(C)C)[C@@H]3C[C@@H]1C2)C(=O)OCOC(=O)c1ccc(F)cc1
result: > 64 µg/mL

The reported measurements were obtained from patent US20070049564A1.
